// provenance: ChEMBL document CHEMBL1127282

- system: Growth hormone secretagogue receptor type 1 (Rattus norvegicus) (UniProt O08725)
- Sequence (O08725 whole entry): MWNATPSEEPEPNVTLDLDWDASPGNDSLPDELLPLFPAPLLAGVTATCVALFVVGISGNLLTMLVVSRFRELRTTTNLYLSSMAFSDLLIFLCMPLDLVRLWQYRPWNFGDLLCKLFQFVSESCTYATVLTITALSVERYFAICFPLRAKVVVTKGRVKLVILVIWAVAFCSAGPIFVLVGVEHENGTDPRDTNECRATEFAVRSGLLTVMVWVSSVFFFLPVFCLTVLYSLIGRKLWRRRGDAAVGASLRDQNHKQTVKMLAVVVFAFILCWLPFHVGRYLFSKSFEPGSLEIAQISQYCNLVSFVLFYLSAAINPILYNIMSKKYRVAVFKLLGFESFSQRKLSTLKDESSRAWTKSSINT
- procedure_details: In vitro effective dose was measured for the growth hormone release in rat pituitary cells
- Assay type: functional, cell-based
- setup_conditions: Pituitary gland cell
measured_quantity: ED50 (µM)

>>> df
                                   molecule  result_unit  test_value
0  C[C@@H](O)CNC(C)(C)CC(=O)N[C@@H]1CCc2ccccc2N(Cc2ccc(-c3ccccc3-c3nn[nH]n3)cc2)C1=O           µM           3
1  N[C@@H]1CCc2ccccc2N(Cc2ccc(-c3ccccc3-c3nn[nH]n3)cc2)C1=O           µM           9

I = C[C@H](O)CNC(C)(C)CC(=O)N[C@@H]1CCc2ccccc2N(Cc2ccc(-c3ccccc3-c3nn[nH]n3)cc2)C1=O
II = C[C@@H](N)C(=O)N[C@@H]1CCc2ccccc2N(Cc2ccc(-c3ccccc3-c3nn[nH]n3)cc2)C1=O (stereo in doubt; 11)
III = CC(C)(CC(=O)N[C@@H]1CCc2ccccc2N(Cc2ccc(-c3ccccc3-c3nn[nH]n3)cc2)C1=O)NCCO
IV = CC(C)CNC(C)(C)CC(=O)N[C@@H]1CCc2ccccc2N(Cc2ccc(-c3ccccc3-c3nn[nH]n3)cc2)C1=O
V = CC(C)(N)CCC(=O)N[C@@H]1CCc2ccccc2N(Cc2ccc(-c3ccccc3-c3nn[nH]n3)cc2)C1=O
Sort ascending by ED50. Would you mind listing the labels in the order requested?
II, V, I, III, IV
